System: MDA-MB-231 breast
Assay: NCI-60 one-dose screen, 48 h (100 = growth as untreated, 0 = no growth, -100 = all killed)
Conditions: 10 µM
This is part of a sample that, as a whole, favours compounds with a hit. Of some 83,000 tested, about 20% had one in any assay. Active and inactive are the calls of the source. How the source made its calls: active means growth percent below 10; inactive means the rest.
measure: growth

Given item CC(=O)[C@H]1CC[C@]2(C)[C@@H]1CC[C@@H]1[C@@]3(C)CC(CCC#N)(CCC#N)C(=O)C(C)(C)[C@@H]3CC[C@]12C , the value recorded as its growth is 105% (inactive)

Given item COc1ccc(C(=O)CC(CC(=O)c2ccc(OC)cc2)c2c(C)nn(-c3ccccc3)c2Cl)cc1 , the value recorded as its growth is 90.9% (inactive)

Given item C=C/C(C)=C/C[C@]1(C)[C@H](C)[C@@H](OC(=O)CCC)[C@H](O)[C@@]23C(=C[C@H](OC)C[C@@H]12)[C@@H](OC(=O)CCC)O[C@H]3OC(C)=O , the value recorded as its growth is -62.7% (active)

The origin of these recorded values is PubChem BioAssay (NCI).
